Measured values drawn from patent US10654917B2 for this set.

Quick reference for Cellular interaction among some sequences
- Tested on: bEnd3 cells
- protocol details: Uptake test: cellular interaction (acid wash) and internalization (lysate)
- Format: cell-based
- reported conditions: 99mTc; 24 hours
observation type: Cellular interaction (%)

>>> measurement("KSKAINVLRGFRKEIGRMLNILN [PepH4]")
10.23
>>> measurement("LVAFLRFLTIPPTAGILKRW [PepM′]")
8.32
>>> measurement("KLFMALVAFLRFLT [PepH2]")
2.20
